B1: library; a variant is named by its letters at N, in order (parent)
chain: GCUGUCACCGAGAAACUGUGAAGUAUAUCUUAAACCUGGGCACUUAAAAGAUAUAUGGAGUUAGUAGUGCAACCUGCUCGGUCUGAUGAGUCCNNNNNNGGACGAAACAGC

Variants of: B1
Assay: normalized RNA/DNA level with ligand (relative to sTRSVctl = 100) (log10 (% of sTRSVctl)); HEK293T; ligand: cyclic di-GMP (c-di-GMP-II aptamer); ligand concentration (+) RNA-Seq: 1 mM; higher = less ribozyme self-cleavage, higher mRNA level
Details: reporter: mCherry (pCS4076), ligand present: yes
normalized RNA/DNA level with ligand (log10) values, listed per item

Reference set (6 entries):
GCUGUCACCGAGAAACUGUGAAGUAUAUCUUAAACCUGGGCACUUAAAAGAUAUAUGGAGUUAGUAGUGCAACCUGCUCGGUCUGAUGAGUCCCCUGAUGGACGAAACAGC	1.78
GCUGUCACCGAGAAACUGUGAAGUAUAUCUUAAACCUGGGCACUUAAAAGAUAUAUGGAGUUAGUAGUGCAACCUGCUCGGUCUGAUGAGUCCAUGUAGGGACGAAACAGC	1.77
GCUGUCACCGAGAAACUGUGAAGUAUAUCUUAAACCUGGGCACUUAAAAGAUAUAUGGAGUUAGUAGUGCAACCUGCUCGGUCUGAUGAGUCCGGCGUAGGACGAAACAGC	1.74
GCUGUCACCGAGAAACUGUGAAGUAUAUCUUAAACCUGGGCACUUAAAAGAUAUAUGGAGUUAGUAGUGCAACCUGCUCGGUCUGAUGAGUCCGGACGCGGACGAAACAGC	1.82
GCUGUCACCGAGAAACUGUGAAGUAUAUCUUAAACCUGGGCACUUAAAAGAUAUAUGGAGUUAGUAGUGCAACCUGCUCGGUCUGAUGAGUCCUCUCAAGGACGAAACAGC	1.83
GCUGUCACCGAGAAACUGUGAAGUAUAUCUUAAACCUGGGCACUUAAAAGAUAUAUGGAGUUAGUAGUGCAACCUGCUCGGUCUGAUGAGUCCCGGGCUGGACGAAACAGC	1.92

// recorded normalized RNA/DNA level with ligand (log10) for GCUGUCACCGAGAAACUGUGAAGUAUAUCUUAAACCUGGGCACUUAAAAGAUAUAUGGAGUUAGUAGUGCAACCUGCUCGGUCUGAUGAGUCCUACCGUGGACGAAACAGC : 1.75

// recorded normalized RNA/DNA level with ligand (log10) for GCUGUCACCGAGAAACUGUGAAGUAUAUCUUAAACCUGGGCACUUAAAAGAUAUAUGGAGUUAGUAGUGCAACCUGCUCGGUCUGAUGAGUCCUUGACUGGACGAAACAGC : 1.84

// recorded normalized RNA/DNA level with ligand (log10) for GCUGUCACCGAGAAACUGUGAAGUAUAUCUUAAACCUGGGCACUUAAAAGAUAUAUGGAGUUAGUAGUGCAACCUGCUCGGUCUGAUGAGUCCUUUCGCGGACGAAACAGC : 1.89

// recorded normalized RNA/DNA level with ligand (log10) for GCUGUCACCGAGAAACUGUGAAGUAUAUCUUAAACCUGGGCACUUAAAAGAUAUAUGGAGUUAGUAGUGCAACCUGCUCGGUCUGAUGAGUCCCCGUUCGGACGAAACAGC : 1.78

// recorded normalized RNA/DNA level with ligand (log10) for GCUGUCACCGAGAAACUGUGAAGUAUAUCUUAAACCUGGGCACUUAAAAGAUAUAUGGAGUUAGUAGUGCAACCUGCUCGGUCUGAUGAGUCCGUGUUUGGACGAAACAGC : 1.9

// recorded normalized RNA/DNA level with ligand (log10) for GCUGUCACCGAGAAACUGUGAAGUAUAUCUUAAACCUGGGCACUUAAAAGAUAUAUGGAGUUAGUAGUGCAACCUGCUCGGUCUGAUGAGUCCGUUCCGGGACGAAACAGC : 1.94

// recorded normalized RNA/DNA level with ligand (log10) for GCUGUCACCGAGAAACUGUGAAGUAUAUCUUAAACCUGGGCACUUAAAAGAUAUAUGGAGUUAGUAGUGCAACCUGCUCGGUCUGAUGAGUCCGUAUGAGGACGAAACAGC : 1.67

// recorded normalized RNA/DNA level with ligand (log10) for GCUGUCACCGAGAAACUGUGAAGUAUAUCUUAAACCUGGGCACUUAAAAGAUAUAUGGAGUUAGUAGUGCAACCUGCUCGGUCUGAUGAGUCCAAAUACGGACGAAACAGC : 1.8

// recorded normalized RNA/DNA level with ligand (log10) for GCUGUCACCGAGAAACUGUGAAGUAUAUCUUAAACCUGGGCACUUAAAAGAUAUAUGGAGUUAGUAGUGCAACCUGCUCGGUCUGAUGAGUCCUGAGAGGGACGAAACAGC : 1.87

// recorded normalized RNA/DNA level with ligand (log10) for GCUGUCACCGAGAAACUGUGAAGUAUAUCUUAAACCUGGGCACUUAAAAGAUAUAUGGAGUUAGUAGUGCAACCUGCUCGGUCUGAUGAGUCCUGUUCCGGACGAAACAGC : 1.94

// recorded normalized RNA/DNA level with ligand (log10) for GCUGUCACCGAGAAACUGUGAAGUAUAUCUUAAACCUGGGCACUUAAAAGAUAUAUGGAGUUAGUAGUGCAACCUGCUCGGUCUGAUGAGUCCGUAGGGGGACGAAACAGC : 1.71

// recorded normalized RNA/DNA level with ligand (log10) for GCUGUCACCGAGAAACUGUGAAGUAUAUCUUAAACCUGGGCACUUAAAAGAUAUAUGGAGUUAGUAGUGCAACCUGCUCGGUCUGAUGAGUCCAUGCCGGGACGAAACAGC : 1.86

// recorded normalized RNA/DNA level with ligand (log10) for GCUGUCACCGAGAAACUGUGAAGUAUAUCUUAAACCUGGGCACUUAAAAGAUAUAUGGAGUUAGUAGUGCAACCUGCUCGGUCUGAUGAGUCCAACUAGGGACGAAACAGC : 1.78

// recorded normalized RNA/DNA level with ligand (log10) for GCUGUCACCGAGAAACUGUGAAGUAUAUCUUAAACCUGGGCACUUAAAAGAUAUAUGGAGUUAGUAGUGCAACCUGCUCGGUCUGAUGAGUCCACUAUGGGACGAAACAGC : 1.75

// recorded normalized RNA/DNA level with ligand (log10) for GCUGUCACCGAGAAACUGUGAAGUAUAUCUUAAACCUGGGCACUUAAAAGAUAUAUGGAGUUAGUAGUGCAACCUGCUCGGUCUGAUGAGUCCUUUUUCGGACGAAACAGC : 1.88
